Attribution: the supplement of paper PMC9663587

Parameter: GRmax, 72 h. Scope: all listed entries.
System: CAL851
Experiment Description: GRmax, 72 h; higher = less effect
Measured Quantity: GRmax, 72 h (GR)

Compound | Measured Quantity | Units Of Measure | Readout Value
COc1cc([C@@H]2c3cc4c(cc3[C@@H](O[C@@H]3O[C@@H]5CO[C@@H](C)O[C@H]5[C@H](O)[C@H]3O)[C@H]3COC(=O)[C@H]23)OCO4)cc(OC)c1O [Etoposide] (max 10 µM) | GRmax, 72 h | GR | -0.241
CN(C)C/C=C/C(=O)Nc1ccc(O[C@@H]2CCC[C@@H](Nc3ncc(Cl)c(-c4c[nH]c5ccccc45)n3)C2)cc1 [BSJ-01-175] (max 10 µM) | GRmax, 72 h | GR | -0.535
CO[C@H]1C[C@@H]2CC[C@@H](C)[C@@](O)(O2)C(=O)C(=O)N2CCCC[C@H]2C(=O)O[C@H]([C@H](C)C[C@@H]2CC[C@@H](OCCO)[C@H](OC)C2)CC(=O)[C@H](C)/C=C(\C)[C@@H](O)[C@@H](OC)C(=O)[C@H](C)C[C@H](C)/C=C/C=C/C=C/1C [Everolimus] (max 10 µM) | GRmax, 72 h | GR | 0.371
COc1cc2nccc(Oc3ccc(NC(=O)C4(C(=O)Nc5ccc(F)cc5)CC4)cc3)c2cc1OC [Cabozantinib] (max 10 µM) | GRmax, 72 h | GR | 0.173
Cc1cc(C(C)Nc2ccccc2)c2nc(N3CCOCC3)cc(=O)n2c1 (stereo not given) [TGX221] (max 10 µM) | GRmax, 72 h | GR | 0.99

====

System: UACC812
Experiment Description: area over the GR curve, 72 h; higher = more effect;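 note: Dye Drop or Deep Dye Drop imaging of viable cells in 384-well plates (Hoechst nuclei, LIVE/DEAD dye), nine half-log doses, GR normalized to DMSO controls and time-zero plates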

Molecule | Target Desc | area over the GR curve / GR
CC(C)n1nc(-c2ccc3oc(N)nc3c2)c2c(N)ncnc21 [INK128/MLN0128] (max 3.162 µM) | UACC812 | 1.22
CN(C)CC[C@H](CSc1ccccc1)Nc1ccc(S(=O)(=O)NC(=O)c2ccc(N3CCN(Cc4ccccc4-c4ccc(Cl)cc4)CC3)cc2)cc1[N+](=O)[O-] [ABT-737] (max 10 µM) | UACC812 | 0.276
COc1cc2c(Oc3ccc4[nH]c(C)cc4c3F)ncnc2cc1OCCCN1CCCC1 [Cediranib/AZD2171] (max 10 µM) | UACC812 | 0.342
COc1cccc2c1C(=O)c1c(O)c3c(c(O)c1C2=O)C[C@@](O)(C(=O)CO)C[C@@H]3O[C@H]1C[C@H](N)[C@H](O)[C@H](C)O1 [Doxorubicin] (max 3.162 µM) | UACC812 | 1.18

====

System: BT20
Experiment Description: GRmax, 72 h; higher = less effect;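 note: breast cell lines in 384-well plates, nine doses across a 10^4 range, Dye Drop imaging of viable cells vs DMSO and time-zero plates, GR 0 means no net growth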
Measured Quantity: GRmax, 72 h (GR)

Compound | Readout Value
CC(=O)c1c(C)c2cnc(Nc3ccc(N4CCN(CCOCCOCCOCCNC(=O)COc5cccc6c5C(=O)N(C5CCC(=O)NC5=O)C6=O)CC4)cn3)nc2n(C2CCCC2)c1=O (stereo not given) [BSJ-03-123] (max 10 µM) | -0.005
O=C1NC(=O)[C@@H](c2cn3c4c(cccc24)CCC3)[C@@H]1c1c[nH]c2ccccc12 [Tivantinib/ARQ197] (max 10 µM) | -0.488
N.N.[Cl][Pt][Cl] [Cisplatin] (max 10 µM) | -0.337
COc1cc(N2CCN(C)CC2)ccc1Nc1ncc2c(n1)N(C)c1ccccc1C(=O)N2CC(F)(F)F | 0.973
CN(C)C/C=C/C(=O)Nc1ccc(O[C@@H]2CCC[C@@H](Nc3ncc(Cl)c(-c4c[nH]c5ccccc45)n3)C2)cc1 [BSJ-01-175] (max 10 µM) | -0.669
CC(=O)O[C@H]1C(=O)[C@@]2(C)[C@H]([C@H](OC(=O)c3ccccc3)[C@]3(O)C[C@H](OC(=O)[C@H](O)[C@@H](NC(=O)c4ccccc4)c4ccccc4)C(C)=C1C3(C)C)[C@]1(OC(C)=O)CO[C@@H]1C[C@@H]2O [Paclitaxel] (max 1 µM) | -0.576
C[C@@H]1COCCN1c1cc(C2([S@](C)(=N)=O)CC2)nc(-c2cc[nH]c3nccc2-3)n1 [AZD6738] (max 10 µM) | 0.187
CN1CCN(C(=O)c2ccc3cc(CCNc4ncnc5ccc(C#N)cc45)ccc3c2)CC1 [senexin b] (max 10 µM) | 0.175
CN(C)CC[C@H](CSc1ccccc1)Nc1ccc(S(=O)(=O)NC(=O)c2ccc(N3CCN(Cc4ccccc4-c4ccc(Cl)cc4)CC3)cc2)cc1[N+](=O)[O-] [ABT-737] (max 10 µM) | 0.593
CN(C)C(=O)c1cc2cnc(Nc3ccc(N4CCNCC4)cn3)nc2n1C1CCCC1 [LEE011/Ribociclib] (max 10 µM) | 0.092
COc1ccc2c(c1)[C@]1(C[C@H]1c1ccc3c(/C=C/c4ccc(CN5C[C@@H](C)O[C@@H](C)C5)cc4)n[nH]c3c1)C(=O)N2 | -0.231
CNc1nc(-c2ccc3c(N)n[nH]c3c2)cc(N2C[C@@H](C(=O)NC3CCCCC3)CC[C@H]2C)n1 (max 10 µM) | 0.68
CCc1cncnc1N1CCN(Cc2nc3ccc(C(F)(F)F)cc3[nH]2)CC1 (max 10 µM) | 0.66
CO[C@H]1C[C@@H]2CC[C@@H](C)[C@@](O)(O2)C(=O)C(=O)N2CCCC[C@H]2C(=O)O[C@H]([C@H](C)C[C@@H]2CC[C@@H](OCCO)[C@H](OC)C2)CC(=O)[C@H](C)/C=C(\C)[C@@H](O)[C@@H](OC)C(=O)[C@H](C)C[C@H](C)/C=C/C=C/C=C/1C [Everolimus] (max 10 µM) | 0.39
CC1(N)CCN(c2cnc(-c3cccc(Cl)c3Cl)c(N)n2)CC1 [SHP099] (max 10 µM) | 0.914
